biological target: T1, mouse CD40-hFc (mouse, UniProt P27512 20-193); assay: ELISA, muCD40-hFc coated
T1 construct: Bought protein; also called muCD40-hFc
T1 sequence (P27512 20-193): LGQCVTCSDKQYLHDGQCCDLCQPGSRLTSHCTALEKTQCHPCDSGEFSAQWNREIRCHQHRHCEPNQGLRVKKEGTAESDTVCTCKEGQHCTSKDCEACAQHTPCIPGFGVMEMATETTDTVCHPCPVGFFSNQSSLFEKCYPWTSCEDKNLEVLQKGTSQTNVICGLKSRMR
observable: binding result

1) 50F6 (mouse monoclonal antibody) (antibody, V domains shown) VH: QVQLEQSGDDLVKPGASVKLSCKASGYTFTTYWINWIKQRPGQGLEWIGRISPGSGSTHYNEMFKGKATLTVDTSSSTAYIQLSSLSSEDSAVYFCTRNDYWGQGTTLTVSS VL: DIVLTQSPLSLPVSLGDQASISCRSSQSIVNSNGNTYLEWYLQKPGQSPKLLIYKVSNRFSGVPDRFSGSGSGTDFTLKISRVEAEDLGVYYCFQGSHVPLTFGAGTKLELK ... no binding
2) 16A6 (mouse monoclonal antibody) (antibody, V domains shown) VH: EVQLEQSGPGLVKPSQSLSLTCSVTGYSITTNYHWNWIRQFPGNKLEWMGYIKYDGSNNYNPSLKNRISITRDTSKNQFFLKLNSVTTEDTATYYCARLDYWGQGTSVTVSS VL: DIVLTQSTLSLSVSLGDQASISCRSSQSLENSNGNTFLNWFLQKPGQSPQLLIYKVSNRFSGVLDRFSGTGSGTDLTLTISRVEAEDLGVYFCLQVTHVPFTFGSGTKLEIK ... no binding
